This collection of values is drawn from the supplement of paper PMC10899765.

Measured one-nucleolus phenotype percent effect, listed per entry.
- Tested on: MCF10A
- test_protocol: one-nucleolus phenotype percent effect (relative to siNT 0% and siNOL11 100%); higher = more cells with one nucleolus (ribosome biogenesis inhibition)
- conditions_used: 20 nM; 72 h
Remember to follow the number with its unit.

>>> reading("UAAAACCCACAAUUAUGUUUGU [hsa-miR-548as-3p]")
"25.3%"
>>> reading("CUGGUACAGGCCUGGGGGACAG [hsa-miR-150-3p]")
"11%"
>>> reading("UACUCAGGAGAGUGGCAAUCAC [hsa-miR-510]")
"41.9%"
>>> reading("CAGUGAUUUGAGGAUUAUUGC [hsa-miR-8062]")
"7.28%"
>>> reading("AAUUCCCUUGUAGAUAACCCGG [hsa-miR-3938]")
"-32%"

Next:
Q. Consider the sequence UGACCCCCAUGUCGCCUCUGUAG [hsa-miR-6859-3p] and give its measured one-nucleolus phenotype percent effect.
A. 2.24%

* * *

Here, each record is paired with measured 5+ nucleoli phenotype percent effect data.
- System: MCF10A
- test_protocol: 5+ nucleoli phenotype percent effect (relative to siNT 0% and siKIF11 100%); higher = more cells with five or more nucleoli
- conditions_used: 20 nM; 72 h
# number only, unit % dropped from output

Q. // returns reported 5+ nucleoli phenotype percent effect for input AUCACAUUGCCAGUGAUUACCC [hsa-miR-23c]
A. -6.12

Q. Can you check UAGGGGGUGGCAGGCUGGCC [hsa-miR-6732-5p] next?
A. -15.7

Q. And then UGAGGGACCCAGGACAGGAGA [hsa-miR-6875-5p] , what is it?
A. -0.911

Q. Field entry: AUUGCCUAACAUGUGCCAGAA [hsa-miR-4774-3p]
A. -31.6

Q. Next up: UUCUAGAUGAGAGAUAUAUAUA [hsa-miR-4777-5p]
A. -25.9

Q. Then this sequence: UAAGGGGUGUAUGGCAGAUGCA [hsa-miR-3936]
A. -17.6

Q. Item: UCUGGCUGUGCUGUAAUGCAG [hsa-miR-6504-5p]
A. -5.01

Q. Follow-up entry: CAAACCACACUGUGGUGUUAGA [hsa-miR-497-3p]
A. 4.48

Q. Same lookup for UGUGCAGCAGGCCAACCGAGA [hsa-miR-3944-5p] , please.
A. 4.63

Q. Same question, ACAGGUGAGGUUCUUGGGAGCC [hsa-miR-125a-3p] this time
A. -0.517

Q. Then UAGCACCAUCUGAAAUCGGUUA [hsa-miR-29a-3p] ?
A. 46.9

* * *

- Test system: MCF10A
- test_protocol: one-nucleolus phenotype percent effect (relative to siNT 0% and siNOL11 100%); higher = more cells with one nucleolus (ribosome biogenesis inhibition)
- conditions_used: 20 nM; 72 h
Decide by one-nucleolus phenotype percent effect: equal to or exceeding 20% means y, less means n.

Check out these entries, answers already filled in.
>>> category_label("CUGUGCGUGUGACAGCGGCUGA [hsa-miR-210]")
"n"
>>> category_label("CCUGCGUGUUUUCUGUCCAA [hsa-miR-4520a-5p]")
"n"
>>> category_label("AAAAACUGCAAUCACUUUUGC [hsa-miR-548az-3p]")
"n"

Q. Hi team, for CCUCCCAUGCCAAGAACUCCC [hsa-miR-2116-3p] , is the recorded one-nucleolus phenotype percent effect at or above 20%?
A. n

Q. Then what about the sequence UCAGUAAAUGUUUAUUAGAUGA [hsa-miR-545-5p] ?
A. n

Q. Would you kindly repeat that for AGUUUGGGAUGGAGAGAGGAGA [hsa-miR-6740-5p] ?
A. n

Q. Okay, and UAGCAGCACGUAAAUAUUGGCG [hsa-miR-16-5p] ?
A. y

Q. Please answer likewise for GACUCACUCACAGGAUUGUGCA [hsa-miR-3680-5p]
A. n

Q. // next record AGACAUCAAGAUCAGUCCCAAA [hsa-miR-3913-3p]
A. y

* * *

- Tested on: MCF10A
- test_protocol: percent viability (nuclei count relative to siNT); higher = more viable cells
- conditions_used: 20 nM; 72 h
percent viability: recorded values
Just the number please, in %, no unit attached.

>>> reading("UAGCAGCGGGAACAGUUCUGCAG [hsa-miR-503-5p]")
29.1
>>> reading("AAGUGCCCCCACAGUUUGAGUGC [hsa-miR-371b-3p]")
84.2
>>> reading("GGAUAUCAUCAUAUACUGUAAG [hsa-miR-144-5p]")
54.5

Q. MCF10A / percent viability / UCUGGCAAGUAAAAAACUCUCAU [hsa-miR-3128] : value?
A. 24.9

Q. Moving on to the next sequence: GCCUGCUGGGGUGGAACCUGGU [hsa-miR-370]
A. 45.3

Q. Here is the next sequence: UUCCCUUUGUCAUCCUUCGCCU [hsa-miR-211-5p]
A. 75.8

Q. Try CUAUACGACCUGCUGCCUUUCU [hsa-let-7d-3p] next.
A. 84.7

Q. // next record UAUCAUGGAGUUGGUAAAGCAC [hsa-miR-2681-3p]
A. 62.4

Q. # iterate: AAUGUGUAGCAAAAGACAGA [hsa-miR-511-3p]
A. 18.7

Q. Again, but for UCUAGAAAUGCAUGACCCACC [hsa-miR-6508-5p]
A. 112

Q. What do you get for ACUGGACUUGGAGUCAGAAGAGUGG [hsa-miR-378c] ?
A. 22.4

* * *

- Test system: MCF10A
- test_protocol: one-nucleolus phenotype percent effect (relative to siNT 0% and siNOL11 100%); higher = more cells with one nucleolus (ribosome biogenesis inhibition)
- conditions_used: 20 nM; 72 h
experimental_readout: one-nucleolus phenotype percent effect (%)
Use % as the unit, but write only the number.

>>> reading("GUGAGGCGGGGCCAGGAGGGUGUGU [hsa-miR-6765-5p]")
-21.4
>>> reading("AGAUGUCCAGCCACAAUUCUCG [hsa-miR-2964a-5p]")
39.4
>>> reading("AUUGGGAACAUUUUGCAUGUAU [hsa-miR-450a-1-3p]")
-29.7
>>> reading("CCUGUUGAAGUGUAAUCCCCA [hsa-miR-1267]")
-18.3
>>> reading("GAGCCAGUGGUGAGACAGUGA [hsa-miR-4676-5p]")
-15.1

Q. Fill blank: measured one-nucleolus phenotype percent effect of the sequence UGGGAGGGCGUGGAUGAUGGUG [hsa-miR-6785-5p] is ____.
A. -4.23

Q. Then what about the sequence AGGGCUUAGCUGCUUGUGAGCA [hsa-miR-27a-5p] ?
A. 23.8

Q. Quick one: AUCUGUAAGAGAAAGUAAAUGA [hsa-miR-3686]
A. -0.187

Q. Can you check CAGGGAGAAGGUGGAAGUGCAGA [hsa-miR-6760-5p] next?
A. -0.928

Q. Now try AAAAGUAAUUGUGGUUUUGGCC [hsa-miR-548b-5p] .
A. -24.3

Q. Lookup UGGGGAGGUGUGGAGUCAGCAU [hsa-miR-6825-5p]
A. 37.7

* * *

Measured one-nucleolus phenotype percent effect accompanies every entry in the list below.
- Test system: MCF10A
- test_protocol: one-nucleolus phenotype percent effect (relative to siNT 0% and siNOL11 100%); higher = more cells with one nucleolus (ribosome biogenesis inhibition)
- conditions_used: 20 nM; 72 h
Give just the numeric value; % need not be written.

Some sequences with known one-nucleolus phenotype percent effect results, for comparison:
>>> reading("AAAAGUUAUUGCGGUUUUGGCU [hsa-miR-548at-5p]")
-14.7
>>> reading("GAAGGCGCUUCCCUUUGGAGU [hsa-miR-524-3p]")
35.1
>>> reading("UCACCCUGCAUCCCGCACCCAG [hsa-miR-3620-3p]")
-11.9
>>> reading("GGGGGGGCAGGAGGGGCUCAGGG [hsa-miR-328-5p]")
-28.4
>>> reading("AUUGGACUGCUGAUGGCCCGU [hsa-miR-4529-3p]")
19.5

Let's switch to this sequence now.
Q. Requested field: one-nucleolus phenotype percent effect. Item: UGUUGUACUUUUUUUUUUGUUC [hsa-miR-3613-5p]
A. -10.4

* * *

- Test system: MCF10A
- test_protocol: one-nucleolus phenotype percent effect (relative to siNT 0% and siNOL11 100%); higher = more cells with one nucleolus (ribosome biogenesis inhibition)
- conditions_used: 20 nM; 72 h
Catalogue of one-nucleolus phenotype percent effect values
Report the figure in % without appending any unit label.

Q. Provide value of one-nucleolus phenotype percent effect for this record tested with MCF10A: CGCGGGCGCUCCUGGCCGCCGCC [hsa-miR-4767]
A. -12.9

Q. Continue with UAUGUAACACGGUCCACUAACC [hsa-miR-411-3p]
A. -6.25
